Where do the numbers come from? From patent US5144017A.

Molecular target: cardiac glycoside (CG) binding site (digitalis receptor) of heart muscle
Assay: 3H-ouabain radioligand binding assay (RBA)
Design: species or system dog
Details: cardiac receptor of heart muscle; membranes from dog myocardium; read-out: binding / displacement potency in the 3H-ouabain RBA (IC50)
Kindly apply the following: rule met if IC50 is less than 4 µM, rule not met in every other case.

molecule: CC(=O)[C@H]1CC[C@]2(O)[C@@H]3CCC4=C[C@@H](O[C@@H]5O[C@H](CO)[C@@H](O)[C@H](O)[C@H]5O)CC[C@]4(C)[C@H]3CC[C@]12C [compound 8]
experimental_target: cardiac glycoside (CG) binding site (digitalis receptor) of heart muscle
classification: rule met
--
molecule: CC(=O)[C@H]1CC[C@]2(O)[C@@H]3CCC4=C[C@@H](O)CC[C@]4(C)[C@H]3CC[C@]12C [compound 7, 3β,14-dihydroxy-14β-pregn-4-en-20-one]
experimental_target: cardiac glycoside (CG) binding site (digitalis receptor) of heart muscle
classification: rule met
--
molecule: CC(=O)O[C@]1(C(C)=O)CC[C@H]2[C@@H]3C=CC4=CC(=O)CC[C@]4(C)[C@H]3CC[C@@]21C [compound 18]
experimental_target: cardiac glycoside (CG) binding site (digitalis receptor) of heart muscle
classification: rule not met
--
molecule: CC(=O)[C@H]1CC[C@H]2[C@@H]3C=CC4=CC(=O)CC[C@]4(C)[C@H]3CC[C@]12C [compound 19]
experimental_target: cardiac glycoside (CG) binding site (digitalis receptor) of heart muscle
classification: rule not met
--
molecule: CC(=O)[C@H]1CC[C@H]2[C@@H]3C=C(Cl)C4=CC(=O)CC[C@]4(C)[C@H]3CC[C@]12C [compound 21]
experimental_target: cardiac glycoside (CG) binding site (digitalis receptor) of heart muscle
classification: rule not met
--
molecule: CC(=O)[C@H]1CC[C@]2(O)[C@@H]3CCC4=C[C@@H](O[C@@H]5O[C@@H](C)[C@H](O)[C@@H](O)[C@H]5O)CC[C@]4(C)[C@H]3CC[C@]12C [rhamnoside]
experimental_target: cardiac glycoside (CG) binding site (digitalis receptor) of heart muscle
classification: rule met
